assay: Equilibrium (apparent) solubility of APR, shake flask method; assay type: physicochemical; conditions: Transcutol P (cosolvent), 25 °C, organic solvent or mixture, thermodynamic from solid, cosolvent Transcutol P, 25 °C; read-out: APR solubility

>  <smiles repr>
C[C@@H](O[C@H]1OCCN(Cc2nc(=O)[nH][nH]2)[C@H]1c1ccc(F)cc1)c1cc(C(F)(F)F)cc(C(F)(F)F)c1

>  <solubility at 24 h>
46.5 mg/mL

$$$$

----------
test: Equilibrium (apparent) solubility of APR, shake flask method; assay type: physicochemical; settings: Eucalyptus oil (oily excipient), 25 °C, oil or lipid, thermodynamic from solid, oily excipient Eucalyptus oil, 25 °C; read-out: APR solubility

>  <compound>
C[C@@H](O[C@H]1OCCN(Cc2nc(=O)[nH][nH]2)[C@H]1c1ccc(F)cc1)c1cc(C(F)(F)F)cc(C(F)(F)F)c1 [APR]

>  <unit tag>
µg/mL

>  <solubility at 24 h>
6840

$$$$

----------
assay: Equilibrium (apparent) solubility of APR, shake flask method; assay type: physicochemical; details: Kolliphor RH40 (surfactant), 25 °C, aqueous with cosolvent or surfactant or cyclodextrin, thermodynamic from solid, surfactant Kolliphor RH40, 25 °C; read-out: APR solubility

>  <smiles repr>
C[C@@H](O[C@H]1OCCN(Cc2nc(=O)[nH][nH]2)[C@H]1c1ccc(F)cc1)c1cc(C(F)(F)F)cc(C(F)(F)F)c1

>  <unit tag>
µg/mL

>  <solubility at 24 h>
8980

$$$$

----------
assay: Equilibrium (apparent) solubility of APR, shake flask method; assay type: physicochemical; conditions: Tween 60 (surfactant), 25 °C, aqueous with cosolvent or surfactant or cyclodextrin, thermodynamic from solid, surfactant Tween 60, 25 °C; read-out: APR solubility

>  <smiles repr>
C[C@@H](O[C@H]1OCCN(Cc2nc(=O)[nH][nH]2)[C@H]1c1ccc(F)cc1)c1cc(C(F)(F)F)cc(C(F)(F)F)c1

>  <solubility at 24 h, µg/mL>
5040

$$$$

----------
assay: Equilibrium (apparent) solubility of APR, shake flask method; type: physicochemical; conditions: Labrasol (surfactant), 25 °C, aqueous with cosolvent or surfactant or cyclodextrin, thermodynamic from solid, surfactant Labrasol, 25 °C; read-out: APR solubility

>  <smiles repr>
C[C@@H](O[C@H]1OCCN(Cc2nc(=O)[nH][nH]2)[C@H]1c1ccc(F)cc1)c1cc(C(F)(F)F)cc(C(F)(F)F)c1

>  <solubility at 24 h [mg/mL]>
15.9

$$$$
